# Test system: SARS-CoV-2 Delta
# test.details: microbe, parasite or virus in culture
# Format: cell-based
# test.settings: Severe acute respiratory syndrome coronavirus 2, 24 h; […]; combination at a molar ratio of 1:1; FIG. 3
metric: EC50 (nM)
# unit: nM | format: bare number

EC50 measured on CN1CCN(C(=O)N[C@@H](Cc2ccccc2)C(=O)N[C@H](/C=C/S(=O)(=O)c2ccccc2)CCc2ccccc2)CC1 = 660
